molecular target: mICE (Mus musculus, UniProt P29452); assay: Dissociation constant Ki and irreversible rate constant k3 for irreversible inhibitors, ICE; assay type: biochemical; conditions: continuous assay 60 min, reaction initiated by adding enzyme
Sequence (P29452 123-296 limits assumed): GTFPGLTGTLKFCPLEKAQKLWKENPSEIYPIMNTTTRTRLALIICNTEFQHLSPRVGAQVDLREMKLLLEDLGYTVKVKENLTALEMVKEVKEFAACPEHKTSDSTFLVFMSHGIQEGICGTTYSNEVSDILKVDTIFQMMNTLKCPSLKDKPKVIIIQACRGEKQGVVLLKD
Sequence (P29452 315-402 limits assumed): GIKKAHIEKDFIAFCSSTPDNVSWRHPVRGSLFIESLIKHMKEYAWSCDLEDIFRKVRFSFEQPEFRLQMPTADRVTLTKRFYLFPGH
Measured Parameter: mICE k3/Ki

Worked set:
CC(C)[C@H](NC(=O)COc1cccc2ccccc12)C(=O)N[C@@H](CC(=O)O)C(=O)COP(C)(=O)c1ccccc1 (some centres unmarked) [Example 104] : 50,600 M^−1s^−1
CC(C)[C@H](NC(=O)COc1cccc2ccccc12)C(=O)N[C@@H](CC(=O)O)C(=O)COc1ccc(F)cc1 [Example 67] : 9,120 M^−1s^−1
CCCCCCP(=O)(OCC(=O)[C@H](CC(=O)O)NC(=O)[C@@H](NC(=O)COc1cccc2ccccc12)C(C)C)c1ccccc1 (some centres unmarked) [Example 106] : 42,500 M^−1s^−1
CC(C)[C@H](NC(=O)COc1cccc2ccccc12)C(=O)N[C@@H](CC(=O)O)C(=O)COc1cc(F)c(F)cc1F [Example 77] : 11,500 M^−1s^−1
CC(C)[C@H](NC(=O)CCOc1cccc2ccccc12)C(=O)NC(CC(=O)O)C(=O)CF (mixture of isomers) [Example 55] : 33,200 M^−1s^−1
CC(C)[C@H](NC(=O)COc1cccc2ccccc12)C(=O)N[C@@H](CC(=O)O)C(=O)COc1cccc(F)c1 [Example 66] : 2,700 M^−1s^−1
CC(C)[C@H](NC(=O)COc1ccccc1-c1ccccc1)C(=O)N[C@@H](CC(=O)O)C(=O)COC(=O)c1c(Cl)cccc1Cl [Example 150] : 43,700 M^−1s^−1
O=C(O)CC(NC(=O)[C@@H]1Cc2ccccc2N1C(=O)COc1cccc2ccccc12)C(=O)CF (some centres unmarked) [Example 61] : 93,200 M^−1s^−1

## Input Consider the molecule CC(C)[C@H](NC(=O)COc1cccc2ccccc12)C(=O)N[C@@H](CC(=O)O)C(=O)COP(C)(=O)c1cccc2ccccc12 (some centres unmarked) [Example 110] . State its measured mICE k3/Ki.
## Output 64,900 M^−1s^−1

## Input Consider the molecule CC(C)C[C@H](NC(=O)COc1ccccc1-c1ccccc1)C(=O)N[C@@H](CC(=O)O)C(=O)COP(=O)(c1ccccc1)c1ccccc1 [Example 161] . State its measured mICE k3/Ki.
## Output 86,400 M^−1s^−1

## Input Consider the molecule CC(C)[C@H](NC(=O)COc1cccc2ccccc12)C(=O)N[C@@H](CC(=O)O)C(=O)COc1ccc(F)c(F)c1 [Example 72] . State its measured mICE k3/Ki.
## Output 1,620 M^−1s^−1

Data credit: patent US7157430B2
